test.summary: gradient 5% acetonitrile 3 min, to 50% in 2 min, to 85% in 15 min, held 3 min, 100 µL/min
study.conditions: column: Zorbax Extend-C18 2.1 x 50 mm; eluents: water / acetonitrile, 0.1% formic acid
Think of 700 s as a floor: if RP-LC retention time stands on it or above, it is condition met; beneath it, condition not met.

Before answering, review these 5 worked examples.
State whether the measured RP-LC retention time reaches 700 s, counting equality as reaching it, for O=C(CCCn1c(=O)c2cccn2c2ccc(F)cc21)NCCCN1CCCCCC1
condition not met

State whether the measured RP-LC retention time reaches 700 s, counting equality as reaching it, for O=C(Cn1ncc2c(N3CCN(c4ccccn4)CC3)ncnc21)Nc1ccc(C(F)(F)F)cc1
condition not met

State whether the measured RP-LC retention time reaches 700 s, counting equality as reaching it, for O=C(NCc1csc(C2CCN(C(=O)C3CCCO3)CC2)n1)C1CC1 (stereo not drawn)
condition not met

State whether the measured RP-LC retention time reaches 700 s, counting equality as reaching it, for O=C1[C@H]2CN(Cc3cccc(Cl)c3)C[C@H]2C(=O)N1CCN1CCc2ccccc2C1
condition not met

State whether the measured RP-LC retention time reaches 700 s, counting equality as reaching it, for CC(=O)N1CCc2ccccc2C1C(=O)N1CCN(c2ccc(F)cc2)CC1 (stereo not drawn)
condition not met

Continuing:
State whether the measured RP-LC retention time reaches 700 s, counting equality as reaching it, for CCc1ccc(S(=O)(=O)Nc2ccc(C3(C(=O)NCC4CCCO4)CC3)cc2)cc1 (stereo not drawn)
condition met

State whether the measured RP-LC retention time reaches 700 s, counting equality as reaching it, for CCCN1N=C(C(=O)N2CCOCC2)S(=O)(=O)c2ccc(Cl)cc21
condition met

State whether the measured RP-LC retention time reaches 700 s, counting equality as reaching it, for COc1cc(N2CCN(S(=O)(=O)c3ccccc3F)CC2)nc(OC)n1
condition met

State whether the measured RP-LC retention time reaches 700 s, counting equality as reaching it, for CCOc1ccc(CN2C[C@@H](CO)[C@H](c3ccncc3)C2)cc1OCC
condition not met

State whether the measured RP-LC retention time reaches 700 s, counting equality as reaching it, for CCOC(=O)C1CC(C)=C(C)CC1C(=O)O (stereo not drawn)
condition met

State whether the measured RP-LC retention time reaches 700 s, counting equality as reaching it, for CCOc1ccc(-n2c(N3CCSC3)nc3cc(C(=O)OC)ccc3c2=O)cc1
condition met

State whether the measured RP-LC retention time reaches 700 s, counting equality as reaching it, for O=C(Cn1ccn2nc(-c3ccc(F)cc3)c(CO)c2c1=O)NC1CCCC1
condition met

State whether the measured RP-LC retention time reaches 700 s, counting equality as reaching it, for CCn1cc(CN2CCCCC2c2nncn2Cc2ccccc2)cn1 (stereo not drawn)
condition not met

State whether the measured RP-LC retention time reaches 700 s, counting equality as reaching it, for CCOC(=O)c1ccc(N2C=C(C#N)S(=O)(=O)c3ccc(Cl)cc32)cc1
condition met

State whether the measured RP-LC retention time reaches 700 s, counting equality as reaching it, for COc1ccc(Nc2ncccc2S(N)(=O)=O)cc1OC
condition not met

State whether the measured RP-LC retention time reaches 700 s, counting equality as reaching it, for Cn1c(CN2CCN(C(=O)Nc3ccccc3C(F)(F)F)CC2)nc2ccccc21
condition not met
